Values were extracted from PubChem BioAssay (NCI).

Tested on: MDA-MB-435
TEST: NCI tumour cell line growth inhibition, 48 h
Could you please report measured TGI for the items listed next?
Numeric answer only, unit µM assumed.

Form entry - test system: MDA-MB-435; read-out: TGI; molecule: "CC1(C)CC[C@]2(C(N)=O)CC[C@]3(C)C(=CC[C@@H]4[C@@]5(C)C/C(=C/c6cccnc6)C(=O)C(C)(C)[C@@H]5CC[C@]43C)[C@@H]2C1"
11.2

Form entry - test system: MDA-MB-435; read-out: TGI; molecule: "CCOC(=O)c1nnn(-c2no[n+]([O-])c2-c2ccc(OC)cc2)c1COc1cccc2cccnc12"
5.09

Form entry - test system: MDA-MB-435; read-out: TGI; molecule: O=S(/C=C/C=C/S(=O)(=O)c1ccccc1)c1ccccc1 (stereo not drawn)
5.96

Form entry - test system: MDA-MB-435; read-out: TGI; molecule: CC(O)CCc1ccc(Oc2c3ccccc3nc3occc23)cc1 (stereo not drawn)
15.6

Form entry - test system: MDA-MB-435; read-out: TGI; molecule: "O=C(CCCCN1CCOCC1)Nc1ccc(Cn2nnc3c2C(=O)c2nnn(Cc4ccc(NC(=O)CCCCN5CCOCC5)cc4)c2C3=O)cc1"
0.17

Form entry - test system: MDA-MB-435; read-out: TGI; molecule: C[C@]12CCC(=O)CC1CC[C@@H]1C2CC[C@@]2(C)C1CC[C@@H]2OC(=O)CC[Se][Se]CCC(=O)O[C@H]1CCC2[C@@H]3CCC4CC(=O)CC[C@]4(C)C3CC[C@@]21C (stereo partly drawn)
3.83

Form entry - test system: MDA-MB-435; read-out: TGI; molecule: "CCOC(=O)c1ccc(NC(=O)O/N=C(/Cl)CC)cc1"
34.6

Form entry - test system: MDA-MB-435; read-out: TGI; molecule: CC(=O)OC1CCC2(C)C(CCC3C4CC=C(C5(C)OCCO5)C4(C)CCC32)C1 (stereo not drawn)
47.9

Form entry - test system: MDA-MB-435; read-out: TGI; molecule: "CCN(CC)CCCNc1[nH]ncc2cc3c(nc4ccccc43)c(C)c12"
36.1

---

Could you please report measured GI50 for the items listed next?
Tested on: TK-10 renal
TEST: NCI tumour cell line growth inhibition, 48 h

Form entry - test system: TK-10 renal; read-out: GI50; compound: "ClCCn1cnc2c(SCc3ccccc3Cl)ncnc21"
5440 nM

Form entry - test system: TK-10 renal; read-out: GI50; compound: "Cc1nn(CCO)c(C)c1N=[N+]([O-])c1c(C)nn(CCO)c1C"
1640 nM

Form entry - test system: TK-10 renal; read-out: GI50; compound: "CC1(C)CC[C@]2(C(N)=O)CC[C@]3(C)C(=CC[C@@H]4[C@@]5(C)C/C(=C/c6cccnc6)C(=O)C(C)(C)[C@@H]5CC[C@]43C)[C@@H]2C1"
4050 nM

Form entry - test system: TK-10 renal; read-out: GI50; compound: "[Cl-].[Nd+3].[O-]/N=C(\c1ccccc1)c1ccccn1.[O-]/N=C(\c1ccccc1)c1ccccn1.[O-]/N=C(\c1ccccc1)c1ccccn1"
37500 nM

Form entry - test system: TK-10 renal; read-out: GI50; compound: "C=C1C(=O)O[C@H]2[C@H]1CC/C(COC(=O)/C=C\C(=O)NCc1ccc(Cn3c(=O)sn(CCCI)c3=O)cc1)=C\CC[C@@]1(C)O[C@@H]21"
758 nM

Form entry - test system: TK-10 renal; read-out: GI50; compound: CC(=O)OC1CC2C(C)(C)C(=O)C=C[C@]2(C)C2CC[C@]3(C)C(OCC(=O)[C@H]3c3ccoc3)[C@]12C (stereo partly specified)
10400 nM

Form entry - test system: TK-10 renal; read-out: GI50; compound: "COc1cc(-c2csc(NC(=O)Nc3ccc(Cl)c(C(F)(F)F)c3)n2)cc(OC)c1OC"
1780 nM

Form entry - test system: TK-10 renal; read-out: GI50; compound: "C=C1C(=O)O[C@H]2[C@H]1CC/C(COC(=O)CCCC(=O)OC/C1=C/CC[C@@]3(C)O[C@H]3[C@H]3OC(=O)C(=C)[C@@H]3CC1)=C\CC[C@@]1(C)O[C@@H]21"
1530 nM

Form entry - test system: TK-10 renal; read-out: GI50; compound: "COc1ccc2c(c1)[n+]([O-])c(C#N)c(NC(=O)c1cccs1)[n+]2[O-]"
> 100000 nM

Form entry - test system: TK-10 renal; read-out: GI50; compound: C[C@]12CCC(=O)CC1CC[C@@H]1C2CC[C@@]2(C)C1CC[C@@H]2OC(=O)CC[Se][Se]CCC(=O)O[C@H]1CCC2[C@@H]3CCC4CC(=O)CC[C@]4(C)C3CC[C@@]21C (stereo partly specified)
2100 nM

Form entry - test system: TK-10 renal; read-out: GI50; compound: "Cc1cc(Oc2ccccc2)ccc1Nc1ncnc2ccc(-c3cnc(Cl)c(NS(C)(=O)=O)c3)cc12"
1790 nM

Form entry - test system: TK-10 renal; read-out: GI50; compound: "Cc1cc(Nc2ccc3c(c2)OCO3)c2cc3c(cc2n1)OCO3"
5620 nM

Form entry - test system: TK-10 renal; read-out: GI50; compound: "O=C(N/N=C/c1c(Cl)cccc1Cl)c1cccnc1Nc1cccc(C(F)(F)F)c1"
4400 nM

Form entry - test system: TK-10 renal; read-out: GI50; compound: "CCOC(=O)c1nnn(-c2no[n+]([O-])c2-c2ccc(OC)cc2)c1COc1cccc2cccnc12"
2590 nM

Form entry - test system: TK-10 renal; read-out: GI50; compound: "C[CH2][Pb]([CH2]C)([CH2]C)[O]C(=O)COc1ccccc1"
1630 nM

Form entry - test system: TK-10 renal; read-out: GI50; compound: "C[n+]1c2ccccc2c(Nc2ccc(N3CCCCC3)cc2)c2[nH]c3ccccc3c21"
1230 nM
